- Test system: DNA of tumor sarcoma 180 (S-180)
- ASSAY_NAME: Influence on methylation of DNA of tumor sarcoma 180 in vitro (5-MC content)
- Format: cell-based
- APPLIED_CONDITIONS: 3 × 10^−6 M compound, 24 h at 37 °C; reduction of 5-MC content vs S-180 control; read-out: Inhibition of the Level of DNA Methylation
Measured inhibition at 3 µM accompanies every entry in the list below.

COMPOUND: COc1cccc2c1C(=O)c1c(O)c3c(c(O)c1C2=O)C[C@@](O)(C(=O)CO)C[C@@H]3O[C@H]1C[C@H](N)[C@H](O)[C@H](C)O1 [Doxorubicin, doxorubicin, reference compound]
SYSTEM_UNDER_TEST: DNA of tumor sarcoma 180 (S-180)
inhibition at 3 µM, %: 67.2
//
COMPOUND: CC(C)c1nc2oc3c(NCC4CCCO4)ncnc3c2c2c1COC(C)(C)C2 (stereo not shown)
SYSTEM_UNDER_TEST: DNA of tumor sarcoma 180 (S-180)
inhibition at 3 µM, %: 21.9
//
COMPOUND: COc1ccc(CCNc2ncnc3c2oc2nc(C(C)C)c4c(c23)CC(C)(C)OC4)cc1OC
SYSTEM_UNDER_TEST: DNA of tumor sarcoma 180 (S-180)
inhibition at 3 µM, %: 56.2
//
COMPOUND: CC(C)c1nc2oc3c(NCc4ccco4)ncnc3c2c2c1COC(C)(C)C2
SYSTEM_UNDER_TEST: DNA of tumor sarcoma 180 (S-180)
inhibition at 3 µM, %: 40.6
